Experiment: Acute toxicity, intraperitoneal
Conditions: mouse, in vivo, ip
Experimental: Each of the compounds of the Test Compound Nos. 2, 3, 4, 5, 6, 17, 23, 30 and 31 was intraperitoneally administered to ddY strain mice (.male., body wt. 23±2 g, 10 mice per group), and the LD50 values were measured to find that all of them were 600 mg/kg or more.
QUANTITY: LD50

Consider the compound CCCN(CCC)C(=O)C(CCC(=O)N(C)C)NC(=O)/C=C/c1cc2ccccc2o1 (racemic) and give its recorded LD50.
≥ 600 mg/kg
